System: 941728-121-R-J1-PDC complex spheroid viability
Experiment: Anticancer human tumor 941728-121-R-J1-PDC patient-derived lung adenocarcinoma cell line growth inhibition [RAS]
Conditions: second compound 0.01 µM; first compound 0.0316 µM; stronger effect = lower value
Excerpt: RAS pathway inhibitors in Combinations in Complex Spheroids A high-throughput screen of multi-cell type tumor spheroids was designed to identify active combinations of RAS pathway inhibitors and targeted small molecules. Complex spheroids include a stromal component modeled by human endothelial cells (HUVEC) and fibroblasts modeled by human mesenchymal stem cells (MSCs). […] Compounds. […] If the clinical Cmax for an agent had not been determined, the highest concentration tested was 10 microM. […]
quantity_name: viability, T/C

# annotated cases, reported viability, T/C shown
compound	viability, T/C
CC(Nc1ccc2c(c1)OCCn1cc(N3C(=O)OCC3C(F)F)nc1-2)C(N)=O (stereo not drawn) + C=CC(=O)N1CCN(c2nc(OCC3CCCN3C)nc3c(F)c(-c4nc(N)cc(C)c4C(F)(F)F)c(Cl)cc23)C(C)C1	17.7%
CC(C)NCC(C(=O)N1CCN(c2ncnc3c2C(C)CC3O)CC1)c1ccc(Cl)cc1 (stereo not drawn) + C=CC(=O)N1CCN(c2nc(OCC3CCCN3C)nc3c(F)c(-c4nc(N)cc(C)c4C(F)(F)F)c(Cl)cc23)C(C)C1	18%

Which value of viability, T/C has been reported for C=CC(=O)Nc1cc(Nc2nccc(-c3cn(C)c4ccccc34)n2)c(OC)cc1N(C)CCN(C)C + C=CC(=O)N1CCN(c2nc(OCC3CCCN3C)nc3c(F)c(-c4nc(N)cc(C)c4C(F)(F)F)c(Cl)cc23)C(C)C1 in the records?
19.5%

Which value of viability, T/C has been reported for CC(=O)OC12COC1CC(O)C1(C)C(=O)C(O)C3=C(C)C(OC(=O)C(O)C(NC(=O)OC(C)(C)C)c4ccccc4)CC(O)(C(OC(=O)c4ccccc4)C21)C3(C)C (stereo not drawn) + C=CC(=O)N1CCN(c2nc(OCC3CCCN3C)nc3c(F)c(-c4nc(N)cc(C)c4C(F)(F)F)c(Cl)cc23)C(C)C1 in the records?
15.8%

----------
Listed below: IC50 values for each entry.
Test system: 941728-121-R-J1-PDC complex spheroid viability
Experiment: Anticancer human tumor 941728-121-R-J1-PDC cell line growth inhibition [RAS];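 also: spheroids exposed to compounds for 7 days before readout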
Settings: curve of first compound; second compound 1 µM

molecule	reported_result
CCN1CCN(Cc2ccc(Nc3ncc(F)c(-c4cc(F)c5nc(C)n(C(C)C)c5c4)n3)nc2)CC1 + C#Cc1c(F)ccc2cc(O)cc(-c3ncc4c(N5CC6CCC(C5)N6)nc(OCC56CCCN5CC(F)C6)nc4c3F)c12	< 3.16 nM
C[C@@H](NC(=O)c1ncnc(N)c1Cl)c1ncc(C(=O)Nc2cc(C(F)(F)F)c(Cl)cn2)s1 + C=CC(=O)N1CCN(c2nc(OCC3CCCN3C)nc3c(F)c(-c4nc(N)cc(C)c4C(F)(F)F)c(Cl)cc23)C(C)C1	< 31.6 nM
O=C(c1ccc(F)c(F)c1Nc1ccc(I)cc1F)N1CC(O)([C@@H]2CCCCN2)C1 + C#Cc1c(F)ccc2cc(O)cc(-c3ncc4c(N5CC6CCC(C5)N6)nc(OCC56CCCN5CC(F)C6)nc4c3F)c12	< 3.16 nM
O=C(c1ccc(F)c(F)c1Nc1ccc(I)cc1F)N1CC(O)([C@@H]2CCCCN2)C1 + C=CC(=O)N1CCN(c2nc(OCC3CCCN3C)nc3c(F)c(-c4nc(N)cc(C)c4C(F)(F)F)c(Cl)cc23)C(C)C1	< 3.16 nM

Fill in the recorded IC50 for this molecule, with 941728-121-R-J1-PDC complex spheroid viability as test system: NC1c2ccccc2OC12CCN(c1cnc3c(N4CCCc5ncccc54)n[nH]c3n1)CC2 (stereo not given) + C=CC(=O)N1CCN(c2nc(OCC3CCCN3C)nc3c(F)c(-c4nc(N)cc(C)c4C(F)(F)F)c(Cl)cc23)C(C)C1
< 31.6 nM

Source of measurements: PubChem BioAssay AID2060896
